# System: production of PGF2α
# procedureDetails: Inhibition of PGF2α production in IL-1β-stimulated A549 cells (EIA)
# Assay type: cell-based
# conditionContext: Homo sapiens, IL-1β 1 ng/ml, 18 hours, compound 10 μM, na = not active at the experimental concentration
# label = TRUE if inhibition at 10 µM >= 60% else FALSE

Quick check: does COc1ccc2c(c1)c(CC(=O)O)c(C)n2C(=O)c1ccc(Cl)cc1 [indomethacin, reference compound] have inhibition at 10 µM greater than or equal to 60%?
TRUE

Determine whether measured inhibition at 10 µM meets or exceeds 60% for CCn1c2ccccc2c2cc(NC(=O)c3ccccc3C(F)(F)F)ccc21
FALSE

Please tell me: is the molecule Cn1c2ccccc2c2cc(NC(=O)c3ccccc3Cl)ccc21 at or over 60% in terms of inhibition at 10 µM?
FALSE

In plain terms: is recorded inhibition at 10 µM at least 60% for CC(C)n1c2ccccc2c2cc(NC(=O)c3ccccc3Cl)ccc21 ?
TRUE

Is inhibition at 10 µM at least 60%? Consider CCn1c2ccccc2c2cc(NC(=O)c3ccccc3O)ccc21 [Compound A, reference compound]
TRUE

Would you say O=C(Nc1ccc2c(c1)c1ccccc1n2Cc1ccccc1)c1ccccc1Cl shows inhibition at 10 µM at minimum 60%?
FALSE
